test target: UniProtKB P56817
procedure summary: In vitro enzymatic BACE FRET assay
Format: biochemical
study conditions: average IC50, enzyme assay; read-out: BACE1 FRET assay IC50
reported property: IC50 (µM)
Numbers only, in µM.

Some solved entries appear below for comparison.
smiles string: Cc1cc(C#N)cnc1C(=O)Nc1ccc(F)c([C@]2(C)CS(=O)(=O)C(C)(C)C(N)=N2)c1
test target: UniProtKB P56817
IC50 (µM): 0.0003
//
smiles string: CC1(C)C(N)=N[C@](CF)(c2cc(Nc3ncnc4cc(Cl)cnc34)ccc2F)CS1(=O)=O
test target: UniProtKB P56817
IC50 (µM): 0.00326
//
smiles string: Cc1c(C(F)(F)F)ccnc1Oc1ccc(F)c([C@]2(C)CS(=O)(=O)C(C)(C)C(N)=N2)c1
test target: UniProtKB P56817
IC50 (µM): 2.57

Input line: Find the recorded IC50 belonging to CC1(C)C(N)=N[C@](C)(c2cc(Oc3ncccc3N)ccc2F)CS1(=O)=O and report it.
Output line: 1.5

###

test target: Beta Secretase enzyme (BACE1) (Homo sapiens, UniProt P56817)
Sequence (P56817 46-501): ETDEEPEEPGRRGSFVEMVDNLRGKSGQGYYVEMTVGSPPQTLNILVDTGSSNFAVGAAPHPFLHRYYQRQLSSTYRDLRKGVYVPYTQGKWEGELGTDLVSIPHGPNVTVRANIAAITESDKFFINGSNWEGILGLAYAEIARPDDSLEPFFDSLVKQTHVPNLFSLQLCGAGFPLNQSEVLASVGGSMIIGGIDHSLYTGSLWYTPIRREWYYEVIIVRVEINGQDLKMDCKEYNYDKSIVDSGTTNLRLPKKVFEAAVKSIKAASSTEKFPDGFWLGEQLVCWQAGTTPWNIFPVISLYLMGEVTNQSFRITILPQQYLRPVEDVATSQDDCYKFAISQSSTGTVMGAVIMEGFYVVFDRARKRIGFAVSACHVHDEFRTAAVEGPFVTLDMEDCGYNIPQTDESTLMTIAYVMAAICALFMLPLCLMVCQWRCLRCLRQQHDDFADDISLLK
procedure summary: In vitro enzymatic BACE FRET assay
Assay type: biochemical
study conditions: read-out: BACE1 FRET assay IC50
reported property: log10 IC50 (log10 of the value in nM)
Log10 applied to IC50; unit prior to transform: nM.

Some solved entries appear below for comparison.
smiles string: C[C@@]1(c2cc(Nc3nccc4cc(Cl)cnc34)ccc2F)CS(=O)(=O)CC(N)=N1
log10 IC50: 0.63
--
smiles string: CC1(C)C(N)=N[C@](CF)(c2cc(NC(=O)c3ncc(C(F)(F)F)cc3Cl)ccc2F)CS1(=O)=O
log10 IC50: 0.00
--
smiles string: Cc1cc(OC(F)F)cnc1C(=O)Nc1ccc(F)c([C@]2(C)CS(=O)(=O)C3(CC(F)(F)C3)C(N)=N2)c1
log10 IC50: 0.58
--
smiles string: CC1(C)C(N)=N[C@](C)(c2cc(Oc3ccccn3)ccc2F)CS1(=O)=O
log10 IC50: 2.08
--
smiles string: CC1(C)C(N)=N[C@@](C)(c2cc(NC(=O)c3ccc(Cl)cn3)cc(F)c2F)CS1(=O)=O
log10 IC50: 3.07
--
smiles string: Cc1nc2c(Nc3ccc(F)c([C@]4(C)CS(=O)(=O)CC(N)=N4)c3)nccc2s1
log10 IC50: 2.28
--
smiles string: C[C@@]1(c2cc(NC(=O)c3ccc(Cl)cn3)ccc2F)CS(=O)(=O)C2(CCC2)C(N)=N1
log10 IC50: 0.37

Field: next compound
Input line: Please tell me: log10 IC50 of CC1(C)C(N)=N[C@@](C)(c2cc(Nc3nccc4nc(O)cnc34)cc(F)c2F)CS1(=O)=O , system Beta Secretase enzyme (BACE1) (Homo sapiens, UniProt P56817)?
Output line: 2.70

###

test target: Beta Secretase enzyme (BACE1) (Homo sapiens)
procedure summary: In vitro enzymatic BACE FRET assay
Type: biochemical
reported property: pIC50
One number for each entry, as −log10 of the molar value.

Input line: Find the recorded pIC50 belonging to CC1(C)C(N)=N[C@](C)(c2cc(Br)c[nH]c2=O)CS1(=O)=O and report it.
Output line: 4.68

###

Consider the following compounds; for each one, report its pIC50.
test target: Cathepsin D (Cat D) (Homo sapiens)
Construct: Recombinant Cat D was expressed in CHO cells; made in house; host or cells: CHO cells
Sequence (P07339 65-412, species assumed): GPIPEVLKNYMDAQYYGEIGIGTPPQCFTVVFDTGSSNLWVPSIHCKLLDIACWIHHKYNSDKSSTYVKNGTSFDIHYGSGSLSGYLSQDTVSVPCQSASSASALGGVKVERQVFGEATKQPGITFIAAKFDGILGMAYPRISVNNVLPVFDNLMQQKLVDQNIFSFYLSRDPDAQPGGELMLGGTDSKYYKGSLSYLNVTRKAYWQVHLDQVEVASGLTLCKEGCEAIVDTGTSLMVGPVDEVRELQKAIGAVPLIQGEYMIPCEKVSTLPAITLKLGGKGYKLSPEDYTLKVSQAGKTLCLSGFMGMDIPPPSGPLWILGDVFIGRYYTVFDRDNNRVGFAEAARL
procedure summary: In vitro enzymatic Cathepsin D (Cat D) FRET assay
Assay type: biochemical
study conditions: read-out: CatD IC50
Numbers only, as −log10 of the molar value.

smiles string: CC1(C)C(N)=N[C@@](C)(c2cc(NC(=O)c3ccc(Cl)cn3)cc(F)c2F)CS1(=O)=O
pIC50: 3.65
//
smiles string: CC#CCOc1cnc2c(Nc3ccc(F)c([C@]4(C)CS(=O)(=O)C(C)(C)C(N)=N4)c3)nccc2n1
pIC50: 3.75

For every record below, what is its pIC50?
1. CC1(C)C(N)=N[C@](C)(c2cc(NCc3nn(C(F)F)cc3Cl)ccc2F)CS1(=O)=O
2. CC1(C)C(N)=N[C@](C)(c2cc(Nc3nccc4cc(C#N)cnc34)cnc2F)CS1(=O)=O
3. Cc1nc(Oc2ccc(F)c([C@]3(C)CS(=O)(=O)C(C)(C)C(N)=N3)c2)ccc1C#N
4. Cc1cc(OCC2CC2)cnc1C(=O)Nc1ccc(F)c([C@]2(CF)CS(=O)(=O)C3(CCC3)C(N)=N2)c1

Output line:
1. 4.09
2. 4.17
3. 3.66
4. 3.41
